test system: Streptococcus pyogenes; assay: Antibacterial activity against Streptococcus pyogenes ATCC 12344 incubated for 18 to 24 hrs by CLSI based microdilution broth method; format: functional; settings: time 18-24 hrs
property name: MIC (µg/mL)
Write the number in µg/mL without appending the unit.

substance_smiles=O=C(O)C(F)(F)F.[N-]=[N+]=NCCCCCCCCN(CCCCCCCCNC(=N)NCC1CC1)C(=O)N(CCCCCCCCN=[N+]=[N-])CCCCCCCCNC(=N)NCC1CC1 assay_result=8
substance_smiles=CCNC(=N)NCCCCCCCCNC(N)=O.O=C(O)C(F)(F)F assay_result=64
substance_smiles=C/C=C/CNC(=N)NCCCCCCCCNC(N)=O.O=C(O)C(F)(F)F assay_result=32

Next item in the queue.
If you can, please state the reported MIC value of N=C(N)NCCCCCCCCN(CCCCCCCCNC(=N)NC1CCCC1)C(=O)N(CCCCCCCCNC(=N)N)CCCCCCCCNC(=N)NC1CCCC1.O=C(O)C(F)(F)F .
1
